Just for reference, paper PMC7265341 is where these values come from.

# inhibition at 10 µM per entry
# SYSTEM: CDK11B/Cyclin L2 (Homo sapiens)
# Sequence (P21127 1-782 isoform P21127-2): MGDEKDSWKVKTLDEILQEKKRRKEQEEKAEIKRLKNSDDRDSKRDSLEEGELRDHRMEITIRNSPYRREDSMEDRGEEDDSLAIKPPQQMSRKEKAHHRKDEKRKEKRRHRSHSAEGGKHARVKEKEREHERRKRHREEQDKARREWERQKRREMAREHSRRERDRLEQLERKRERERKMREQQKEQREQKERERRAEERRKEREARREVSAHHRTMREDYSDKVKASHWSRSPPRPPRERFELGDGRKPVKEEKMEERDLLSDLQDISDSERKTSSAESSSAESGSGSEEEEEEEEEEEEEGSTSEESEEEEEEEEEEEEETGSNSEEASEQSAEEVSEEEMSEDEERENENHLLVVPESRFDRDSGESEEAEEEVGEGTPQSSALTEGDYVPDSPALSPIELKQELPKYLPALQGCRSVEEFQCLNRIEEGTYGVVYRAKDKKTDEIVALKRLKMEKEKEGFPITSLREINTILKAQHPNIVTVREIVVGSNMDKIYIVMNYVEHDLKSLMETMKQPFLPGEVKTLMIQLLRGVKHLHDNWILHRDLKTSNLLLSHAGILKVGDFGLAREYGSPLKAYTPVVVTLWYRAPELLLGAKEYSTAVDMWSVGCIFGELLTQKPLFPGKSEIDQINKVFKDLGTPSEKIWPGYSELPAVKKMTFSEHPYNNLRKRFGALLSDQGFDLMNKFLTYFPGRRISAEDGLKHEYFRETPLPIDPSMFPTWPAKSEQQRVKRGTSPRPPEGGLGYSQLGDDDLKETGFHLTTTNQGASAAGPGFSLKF
# EXPERIMENT NOTES: NanoBRET live-cell target engagement, CDK11B-NanoLuc/Cyclin L2 in HEK-293
# Assay type: binding
# SETUP CONDITIONS: CDK11b/L2; 10µM; read-out: Inhibition at 10µM (%) Replicate 1

{"columns": ["COMPOUND", "inhibition at 10 µM"],
 "data": [
  ["Cc1ncc(-c2ccnc(Nc3ccc(S(C)(=O)=O)cc3)n2)n1C(C)C", "70.5%"],
  ["CCCCOc1c(C(=O)c2c(F)cc(C)cc2F)c[nH]c2nncc1-2", "9.8%"],
  ["COc1cc(F)ccc1-c1ncnc(Nc2cccc(C[S@](C)(=N)=O)c2)n1", "11.9%"],
  ["CCN1CCN(Cc2ccc(NC(=O)Nc3ccc(Oc4cc(NC)ncn4)cc3)cc2C(F)(F)F)CC1", "10.9%"],
  ["COc1cc(F)ccc1-c1cc(Nc2cc(CS(C)(=N)=O)ccn2)ncc1F (stereo not drawn)", "35.6%"],
  ["CCN1CCN(Cc2ccc(Nc3ncc(F)c(-c4cc(F)c5nc(C)n(C(C)C)c5c4)n3)nc2)CC1", "27.9%"]
]}
